System Tested: protein;farnesyl transferase (Oryctolagus cuniculus, UniProt G1SFC8+G1T7D9)
Assay Name: Inhibition of protein;farnesyl transferase using C-terminal octapeptide pre-p21N-ras coupled to Sepharose beads as substrate
Assay type: biochemical, rabbit
Parameters: substrate N-ras C-terminal octapeptide on Sepharose beads
Experimental Parameters: octapeptide pre-p21N-ras on Sepharose beads as substrate; read-out: IC50, inhibition of protein;farnesyl transferase
Reported Property: pIC50
In textbook form, pIC50 equals minus log to base ten of the concentration in mol/L.

Ask: Which pIC50 reading was recorded for the compound CC(C)=CCCC(C)=CCCC(C)=CCC(CC=C(C)CCC=C(C)CCC=C(C)C)(P(=O)(O)O)P(=O)(O)O [bisfarnesylmethylenebis(phosphonic acid), reference compound] ?
Result: 3.83
